Data provenance is ChEMBL document CHEMBL1759974.

pIC50: −log10 of the molar value.
Serine/threonine-protein kinase mTOR (Homo sapiens, UniProt P42345) pIC50 data
measurementKind: pIC50

Answered cases to consult:
# structureSmilesString, testedSystem, quantitativeResult
data = [
    ("Cc1nccc(-n2c(Nc3cccc(O)c3)nc3ccccc32)n1", "Serine/threonine-protein kinase mTOR (Homo sapiens, UniProt P42345)", 6.22),
    ("CC(=O)Nc1ccc(Nc2nc3ccccc3n2-c2nc(C)nc(N)n2)cc1", "Serine/threonine-protein kinase mTOR (Homo sapiens, UniProt P42345)", 6.74),
]

A. Cc1nc(N)nc(-n2c(Nc3ccc4cc[nH]c4c3)nc3ccccc32)n1
B. Nc1cc(-n2c(Nc3cccc(O)c3)nc3ccccc32)ncn1
Return label of the item with the larger pIC50. Candidates: A , B . Response format: the label of the selected entry.
A
(A: 6.85, B: 6.38)
